Test system: Candida albicans
Conditions: 20 µM
Description: Antifungal activity against Candida albicans ATCC 90028 (CO-ADD:FG_001); MIC in YNB media using NBS plates, by OD630
Measured potencies and affinities stand elsewhere.
observation_type: Inhibition (%)

>  <compound>
CC(C)(C)NC(=O)[C@@H]1C[C@@H]2CCCC[C@@H]2CN1C[C@@H](O)[C@H](Cc1ccccc1)NC(=O)[C@H](CC(N)=O)NC(=O)c1ccc2ccccc2n1.CS(=O)(=O)O [SAQUINAVIR MESYLATE]

>  <assayed_system>
Candida albicans

>  <reported>
4.21

$$$$
>  <compound>
Cl.c1ccc(CC2=NCCN2)cc1 [TOLAZOLINE HYDROCHLORIDE]

>  <assayed_system>
Candida albicans

>  <reported>
2.51

$$$$
>  <compound>
O=C(O)c1cc2ccccc2c(Cc2c(O)c(C(=O)O)cc3ccccc23)c1O.OCCOCCN1CCN(C(c2ccccc2)c2ccc(Cl)cc2)CC1 [HYDROXYZINE PAMOATE]

>  <assayed_system>
Candida albicans

>  <reported>
5.15

$$$$
>  <compound>
CC(=CCC1=C(C)C(=O)c2ccccc2C1=O)CCCC(C)CCCC(C)CCCC(C)C (configuration not stated)

>  <assayed_system>
Candida albicans

>  <reported>
3.2

$$$$
>  <compound>
COc1ccc2cc([C@H](C)C(=O)[O-])ccc2c1.[Na+] [NAPROXEN SODIUM]

>  <assayed_system>
Candida albicans

>  <reported>
9.05

$$$$
>  <compound>
Cn1cnc([N+](=O)[O-])c1Sc1ncnc2[nH]cnc12

>  <assayed_system>
Candida albicans

>  <reported>
4.62

$$$$
>  <compound>
CC(=O)OCC(=O)[C@@]1(O)CC[C@H]2[C@@H]3CCC4=CC(=O)CC[C@]4(C)[C@H]3[C@@H](O)C[C@@]21C [HYDROCORTISONE ACETATE]

>  <assayed_system>
Candida albicans

>  <reported>
1.02

$$$$

###

Below: a set of entries, each annotated with reported Inhibition.
System: Klebsiella pneumoniae
Conditions: Concentration 20 uM; ASSAY_TEST Inhibition of Bacterial Growth; detection method Absorption (OD600); MEDIA CAMHB; plate type 384well; NBS; CORNING #3640; time 18 hr
Description: Antibacterial activity against Klebsiella pneumoniae MDR ATCC 70063 (CO-ADD:GN_003); MIC in CAMBH media using NBS plates, by OD(600)
Potency and affinity values are given separately.
observation_type: Inhibition (%)

>  <compound>
COc1ccc(-c2oc3c(CC=C(C)C)c(O[C@@H]4O[C@H](CO)[C@@H](O)[C@H](O)[C@H]4O)cc(O)c3c(=O)c2O[C@@H]2O[C@@H](C)[C@H](O)[C@@H](O)[C@H]2O)cc1 [ICARIIN]

>  <reported>
1.41

$$$$
>  <compound>
CC(C[N+](C)(C)C)OC(N)=O.[Cl-] (stereo not drawn) [BETHANECHOL CHLORIDE]

>  <reported>
8.32

$$$$
>  <compound>
C[C@]12CC[C@@H]3c4ccc(O)cc4CC[C@H]3[C@@H]1CC[C@@H]2O [ESTRADIOL]

>  <reported>
5.27

$$$$
>  <compound>
Cc1ccc(-c2cc(C(F)(F)F)nn2-c2ccc(S(N)(=O)=O)cc2)cc1 [CELECOXIB]

>  <reported>
10.55

$$$$
>  <compound>
CN1CCCC(n2nc(Cc3ccc(Cl)cc3)c3ccccc3c2=O)CC1.Cl (stereo not drawn) [AZELASTINE HYDROCHLORIDE]

>  <reported>
-1

$$$$
>  <compound>
C=CCc1ccc(O)c(-c2ccc(O)c(CC=C)c2)c1 [HONOKIOL]

>  <reported>
7.54

$$$$
>  <compound>
COc1ccccc1OCC(O)CN1CCN(CC(=O)Nc2c(C)cccc2C)CC1.Cl.Cl (stereo not drawn) [RANOLAZINE HYDROCHLORIDE]

>  <reported>
1.09

$$$$
>  <compound>
CC(C)[C@H](N)C(=O)OCCOCn1cnc2c(=O)nc(N)[nH]c21.Cl [VALACYCLOVIR HYDROCHLORIDE]

>  <reported>
6.23

$$$$

###

Quick reference: Inhibition of the listed items.
System: Candida albicans
Conditions: 20 µM
Results with a measured potency or affinity are listed apart.

>  <compound>
CCN1CCC[C@H]1CNC(=O)c1c(O)c(Cl)cc(Cl)c1OC [RACLOPRIDE]

>  <unit_spec>
%

>  <Inhibition>
2.44

$$$$
>  <compound>
CC(C)(C(=O)c1cccnc1)c1cccnc1

>  <unit_spec>
%

>  <Inhibition>
2.49

$$$$
>  <compound>
Oc1ncc(F)cn1

>  <unit_spec>
%

>  <Inhibition>
0.46

$$$$
>  <compound>
NC(=O)N1c2ccccc2CC(=O)c2ccccc21 [OXCARBAZEPINE]

>  <unit_spec>
%

>  <Inhibition>
2.7

$$$$
>  <compound>
Cl.O[C@@H](c1cc(C(F)(F)F)nc2c(C(F)(F)F)cccc12)[C@H]1CCCCN1

>  <unit_spec>
%

>  <Inhibition>
5.35

$$$$
>  <compound>
CCOc1cc(CC(=O)N[C@@H](CC(C)C)c2ccccc2N2CCCCC2)ccc1C(=O)O [REPAGLINIDE]

>  <unit_spec>
%

>  <Inhibition>
4.01

$$$$
>  <compound>
CCCCC(=O)OC1(C(=O)CO)CCC2C3CCC4=CC(=O)CCC4(C)C3C(O)CC21C (stereo not given)

>  <unit_spec>
%

>  <Inhibition>
3.16

$$$$
>  <compound>
COc1ccc(/C=C/C(=O)Nc2ccccc2C(=O)O)cc1OC

>  <unit_spec>
%

>  <Inhibition>
4.95

$$$$
>  <compound>
NC(=O)c1cccnc1 [NIACINAMIDE]

>  <unit_spec>
%

>  <Inhibition>
2.62

$$$$
>  <compound>
CN(C)CC[C@@H](c1ccc(Cl)cc1)c1ccccn1.O=C(O)/C=C\C(=O)O [DEXCHLORPHENIRAMINE MALEATE]

>  <unit_spec>
%

>  <Inhibition>
2.45

$$$$

###

// values below are reported Inhibition
System: Klebsiella pneumoniae
Conditions: Concentration 20 uM; ASSAY_TEST Inhibition of Bacterial Growth; detection method Absorption (OD600); MEDIA CAMHB; plate type 384well; NBS; CORNING #3640; time 18 hr
Entries with a potency or affinity are not part of this list.
observation_type: Inhibition (%)

>  <compound>
C[C@@H]1C[C@H]2[C@@H]3CCC4=CC(=O)C=C[C@]4(C)[C@@]3(F)[C@@H](O)C[C@]2(C)[C@H]1C(=O)CO [DESOXIMETASONE]

>  <assayed_system>
Klebsiella pneumoniae

>  <observation_type>
Inhibition

>  <reported>
9.74

$$$$
>  <compound>
COc1ccc(Cl)cc1C(=O)NCCc1ccc(S(=O)(=O)NC(=O)NC2CCCCC2)cc1 [GLYBURIDE]

>  <assayed_system>
Klebsiella pneumoniae

>  <observation_type>
Inhibition

>  <reported>
8.21

$$$$
>  <compound>
COc1cc2c(cc1OC)C(=O)C(CC1CCN(Cc3ccccc3)CC1)C2.Cl (stereo not drawn) [DONEPEZIL HYDROCHLORIDE]

>  <assayed_system>
Klebsiella pneumoniae

>  <observation_type>
Inhibition

>  <reported>
5.21

$$$$
>  <compound>
Cl.c1ccc2c(c1)CCCC2C1=NCCN1 (stereo not drawn) [TETRAHYDROZOLINE HYDROCHLORIDE]

>  <assayed_system>
Klebsiella pneumoniae

>  <observation_type>
Inhibition

>  <reported>
14.26

$$$$
>  <compound>
NS(=O)(=O)c1cc(C(=O)O)c(NCc2ccco2)cc1Cl [FUROSEMIDE]

>  <assayed_system>
Klebsiella pneumoniae

>  <observation_type>
Inhibition

>  <reported>
9.57

$$$$
>  <compound>
CC1CC2C3CCC4=CC(=O)C=CC4(C)[C@@]3(Cl)C(O)CC2(C)C1(O)C(=O)CO (stereo partly drawn)

>  <assayed_system>
Klebsiella pneumoniae

>  <observation_type>
Inhibition

>  <reported>
12.23

$$$$
>  <compound>
O=C(NCCN1CCOCC1)c1ccc(Cl)cc1 [MOCLOBEMIDE]

>  <assayed_system>
Klebsiella pneumoniae

>  <observation_type>
Inhibition

>  <reported>
9.06

$$$$
>  <compound>
Cl.O=C1[C@H]2CCCC[C@H]2C(=O)N1CCCCN1CCN(c2nsc3ccccc23)CC1

>  <assayed_system>
Klebsiella pneumoniae

>  <observation_type>
Inhibition

>  <reported>
9.66

$$$$

###

Quick reference: Inhibition of the listed items.
System: Candida albicans
Settings: 20 µM
Results with a measured potency or affinity are listed apart.

>  <compound>
CC[C@]1(O)C[C@@H]2CN(CCc3c([nH]c4ccccc34)[C@@](C(=O)OC)(c3cc4c(cc3OC)N(C=O)[C@H]3[C@@](O)(C(=O)OC)[C@H](OC(C)=O)[C@]5(CC)C=CCN6CC[C@]43[C@@H]65)C2)C1.O=S(=O)(O)O

>  <assayed_system>
Candida albicans

>  <Inhibition / %>
2.01

$$$$
>  <compound>
Cc1nc2n(c(=O)c1CCN1CCC(c3noc4cc(F)ccc34)CC1)CCCC2

>  <assayed_system>
Candida albicans

>  <Inhibition / %>
0.09

$$$$
>  <compound>
CC(=O)O.NCc1ccc(S(N)(=O)=O)cc1 [MAFENIDE ACETATE]

>  <assayed_system>
Candida albicans

>  <Inhibition / %>
0.67

$$$$
>  <compound>
O=C1N=C([O-])NC1(c1ccccc1)c1ccccc1.[Na+] [PHENYTOIN SODIUM]

>  <assayed_system>
Candida albicans

>  <Inhibition / %>
2.49

$$$$
